target: KRAS protein containing G12D mutation (Homo sapiens (Human), UniProt P01116, G12D); assay: SOS-catalyzed nucleotide exchange assay (GNE), TR-FRET; type: biochemical; settings: biotinylated KRAS G12D, SOS and GTP, 60-minute incubation
Sequence (P01116 other isoform, or with tags, fused parts or gaps G12D (already in the parent)): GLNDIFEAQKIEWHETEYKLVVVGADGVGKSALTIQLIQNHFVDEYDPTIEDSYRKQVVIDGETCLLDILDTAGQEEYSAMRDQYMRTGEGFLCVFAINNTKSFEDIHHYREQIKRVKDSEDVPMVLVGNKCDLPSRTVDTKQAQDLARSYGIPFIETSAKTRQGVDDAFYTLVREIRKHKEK
Property Measured: log10 IC50 (log10 of the value in nM)
Form field - Quantity: IC50; Unit: nM; Scale: log10

Cc1cc2[nH]ncc2c(-c2c(F)cc3c(N4C[C@H]5CC[C@@](C)(C4)N5)nc(OC[C@@]45CCCN4C[C@H](F)C5)nc3c2F)c1OC(F)(F)F (single isomer, unassigned) [Ex. 126a] ... 0.93
Oc1cc(-c2c(Cl)cc3c(N4CC5NC(C4)C(O)C5O)nc(OCC4(CN5CCOCC5)CC4)nc3c2F)c2ccccc2c1 (centres unmarked) ... 2.87

Q) Fill in reported log10 IC50 for this entry: Cc1nc(N)c(C)c(-c2c(F)cc3c(N4CC5CCC(C4)N5)nc(OC[C@@]45CCCN4C[C@H](F)C5)nc3c2F)c1C(F)(F)F (single isomer, unassigned) [Ex. 191b]
A) 3.45

Q) Look up and report measured log10 IC50 for this entry: C#Cc1c(F)ccc2cccc(-c3c(F)cc4c(N5CC6CCC(C5)N6)nc(OC[C@@]56CCCN5[C@H](CO)CC6)nc4c3F)c12 (single isomer, unassigned)
A) 0.20

Q) Fill in log10 IC50 for record C[C@]12CCC(CN(c3nc(OC[C@@H]4CC[C@H]5CC(F)(F)CCN45)nc4c(F)c(-c5cc(O)cc6cccc(Cl)c56)c(F)cc34)C1)N2 (single isomer, unassigned) [Ex. 175b]
A) 4.05

====

target: KRAS protein containing G12D mutation (Homo sapiens (Human), UniProt P01116, G12D); test: SOS-catalyzed nucleotide exchange assay (GNE), TR-FRET; type: biochemical; conditions: biotinylated KRAS G12D, SOS and GTP, 60-minute incubation
Where a name gives a salt, the structure may show the parent alone.
Property Measured: IC50 (nM)
Numeric answer only, unit nM assumed.

Worked examples follow.
C[C@]12CCC(CN(c3nc(OC[C@@]45CCCN4C[C@H](F)C5)nc4c(F)c(-c5cc(O)cn6ncc(Cl)c56)c(F)cc34)C1)N2 (single isomer, unassigned) [Ex. 230b, TFA] ... 162
Cc1cc2[nH]ncc2c(-c2c(F)cc3c(N4CC5CCC(C4)N5)nc(OC[C@@]45CCCN4C[C@H](F)C5)nc3c2F)c1C(F)(F)F [Ex. 140, TFA] ... 3.88
Nc1cc(-c2c(Cl)cc3c(N4CC5CCC(C4)N5)nc(OC[C@@]45CCCN4C[C@H](F)C5)nc3c2F)c(C(F)(F)F)c(Cl)n1 (single isomer, unassigned) [Ex. 155b] ... 2.33
Cc1cc2[nH]nc(C)c2c(-c2c(F)cc3c(N4CC5CCC(C4)N5)nc(OC[C@@]45CCCN4C[C@H](F)C5)nc3c2F)c1OC(F)F (single isomer, unassigned) [Ex. 233b] ... 6.11
C#Cc1csc2ccnc(-c3c(F)cc4c(N5C[C@H]6CC[C@@H](C5)N6)nc(OC[C@@]56CCCN5C[C@H](F)C6)nc4c3F)c12 ... 848

Q) Tell me IC50 reported for Cc1cc2[nH]nc(C#N)c2c(-c2c(F)cc3c(N4C[C@H]5CC[C@@H](C4)N5)nc(OC[C@@]45CCCN4C[C@H](F)C5)nc3c2F)c1C(F)(F)F (single isomer, unassigned) [227b]
A) 1.02

Q) Give reported IC50 value for Cc1nc(N)cc(-c2c(Cl)cc3c(N4C[C@H]5CC[C@@](C)(C4)N5)nc(OCC4(CN5CCOCC5)CC4)nc3c2F)c1C(F)(F)F
A) 361

Q) Check the records and state IC50 for C[C@]12CCC(CN(c3nc(OC[C@]4(CN[C@@H]5CC[C@H](O)C5)CC4(F)F)nc4c(F)c(-c5cc(O)cc6cccc(Cl)c56)c(F)cc34)C1)N2 (single isomer, unassigned) [Ex. 219a]
A) 3.27

Q) Let me know recorded IC50 for C[C@]12CCC(CN(c3nc(OC[C@@]45CCCN4C[C@H](F)C5)nc4c(F)c(-c5cc(O)cc6cccc(Cl)c56)c(F)c(F)c34)C1)N2 , thanks.
A) 17.1

Q) Indicate the recorded IC50 value for this molecule: Cc1cc2[nH]nc(C#N)c2c(-c2c(F)cc3c(N4C[C@H]5CC[C@@H](C4)N5)nc(OC[C@@]45CCCN4C[C@H](F)C5)nc3c2F)c1OC(F)(F)Cl
A) 0.79

Q) Please indicate IC50 recorded for CN(C)CC1(COc2nc(N3CC4CC(O)C(C3)N4)c3cc(Cl)c(-c4cc(O)cc5ccccc45)c(F)c3n2)CC1 (single isomer, unassigned) [Example 23]
A) 4280
